B1: ZNF263 (parent)
chain: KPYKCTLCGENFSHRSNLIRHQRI

Variants of: B1
Assay: protein stability index of a GFP-peptide fusion (GPS, HEK-293T) (PSI 1-6); higher = more stable;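 further: lentivirally expressed fusions sorted by FACS into six bins by GFP to DsRed ratio, PSI derived from sequencing read proportions per bin multiplied by bin number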
Conditions: c terminus: a fixed tail appended
ENDPOINT_LABEL: protein stability index

L7T :: 2.51
N17Q :: 2.9
L7M :: 3.12
H14E :: 2.95
G9A :: 2.19
L18G :: 1.98
Y3V :: 2.28
R20T :: 2.33
S16R :: 3.92
K4H :: 2.95

*Q* Query (variant): T6C ; field requested: protein stability index
*A* 2.1

*Q* Now this one: T6Q
*A* 2.21
